target: HSA (Homo sapiens); assay: HSA binding (plasma protein binding); format: in vitro ADME
measuredProperty: HSA binding (%)
Answers are plain numbers, in %.

These solved cases illustrate the format of a correct answer.
CN1CCC(Nc2nccc(-c3sc(C4CCNCC4)nc3-c3ccc(F)cc3)n2)C1 (stereo not drawn) [Compound 52] : 89
CCc1cc(Nc2nccc(-c3sc(C4CCNCC4)nc3-c3ccc(F)cc3)n2)nc(C)c1F [Compound 36] : 97
Cc1nnc(Nc2nccc(-c3sc(C4CCNCC4)nc3-c3ccc(F)cc3)n2)s1 [Compound 20] : 92

# return HSA binding for each item in the list
1. CN(C)C(CNc1nccc(-c2sc(C3CCNCC3)nc2-c2ccc(F)cc2)n1)C1CC1 (stereo not drawn) [Compound 46]
2. CN1CCN(CCNc2nccc(-c3sc(C4CCNCC4)nc3-c3ccc(F)cc3)n2)CC1 [Compound 48]

Given back:
1: 91; 2: 90

Look up HSA binding for the entries below, preserving their order.
1. Fc1ccc(-c2nc(C3CCNCC3)sc2-c2ccnc(NCC3CCCO3)n2)cc1 (stereo not drawn) [Compound 44]
2. CCOC(=O)N1CCC(c2nc(-c3ccc(F)cc3)c(-c3ccnc(Nc4ccc(N5CCN(C)CC5)cc4)n3)s2)CC1 [Compound 8]
3. Fc1ccc(-c2nc(C3CCNCC3)sc2-c2ccnc(N3CCCC3)n2)cc1 [Compound 53]
4. OCCNc1nccc(-c2sc(C3CCNCC3)nc2-c2ccc(F)cc2)n1 [Compound 42]
5. Fc1ccc(-c2nc(C3CCNCC3)sc2-c2ccnc(N3CCC(N4CCC4)CC3)n2)cc1 [Compound 55]
6. Cc1cc(Nc2nccc(-c3sc(C4CCNCC4)nc3-c3ccc(F)cc3)n2)ccn1 [Compound 31]
7. OC(CNc1nccc(-c2sc(C3CCNCC3)nc2-c2ccc(F)cc2)n1)c1ccncc1 (stereo not drawn) [Compound 40]
8. Fc1ccc(-c2nc(C3CCNCC3)oc2-c2ccnc(Nc3ccncn3)n2)cc1 [Compound 28B]

Given back:
1. 86
2. 98
3. 93
4. 79
5. 90
6. 97.8
7. 85
8. 89

// batch mode: one HSA binding value per listed entry
1. CN1CCN(c2ccc(Nc3nccc(-c4sc(C5CCNCC5)nc4-c4ccc(F)cc4)n3)cc2)CC1 [Compound 7, reference compound]
2. Fc1ccc(-c2nc(C3CCNCC3)sc2-c2ccnc(Nc3cnccn3)n2)cc1 [Compound 26]
3. Fc1ccc(-c2nc(C3CCNCC3)sc2-c2ccnc(NCCN3CCSCC3)n2)cc1 [Compound 50]
4. OC1CCN(c2nccc(-c3sc(C4CCNCC4)nc3-c3ccc(F)cc3)n2)C1 (stereo not drawn) [Compound 54]
5. Cc1cc(Nc2nccc(-c3sc(C4CCNCC4)nc3-c3ccc(F)cc3)n2)nn1C [Compound 23]

Given back:
1: 97; 2: 92; 3: 90; 4: 85; 5: 93

Provide the reported HSA binding of each entry below, same order.
1. Cc1nccc(Nc2nccc(-c3sc(C4CCNCC4)nc3-c3ccc(F)cc3)n2)n1 [Compound 29]
2. Fc1ccc(-c2nc(C3CCNCC3)sc2-c2ccnc(N3CCC(N4CCOCC4)CC3)n2)cc1 [Compound 56]
3. Fc1ccc(-c2nc(C3CCNCC3)sc2-c2ccnc(NCCN3CCOCC3)n2)cc1 [Compound 49]

Given back:
[91, 90, 83]

====

biological target: HSA (Homo sapiens, UniProt P02768); assay: HSA binding (plasma protein binding); type: in vitro ADME
Sequence (P02768 25-609): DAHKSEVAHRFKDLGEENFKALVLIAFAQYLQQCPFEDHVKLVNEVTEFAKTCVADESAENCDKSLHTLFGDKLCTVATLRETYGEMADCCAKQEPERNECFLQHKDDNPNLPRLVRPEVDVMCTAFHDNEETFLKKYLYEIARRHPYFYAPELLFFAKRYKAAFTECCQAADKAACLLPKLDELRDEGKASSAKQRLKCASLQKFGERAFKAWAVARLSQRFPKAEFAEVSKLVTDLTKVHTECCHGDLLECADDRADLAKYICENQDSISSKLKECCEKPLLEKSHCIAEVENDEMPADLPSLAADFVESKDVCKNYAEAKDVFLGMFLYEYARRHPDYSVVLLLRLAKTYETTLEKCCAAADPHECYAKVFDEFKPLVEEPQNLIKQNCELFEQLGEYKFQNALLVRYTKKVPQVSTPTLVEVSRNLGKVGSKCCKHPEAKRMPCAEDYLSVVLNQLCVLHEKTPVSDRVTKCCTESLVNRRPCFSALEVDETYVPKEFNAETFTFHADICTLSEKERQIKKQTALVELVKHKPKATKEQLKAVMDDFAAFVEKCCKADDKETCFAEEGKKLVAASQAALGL
// classify: if (HSA binding < 90%) 1 else -1

Previously resolved entries follow.
Nc1nc(-c2ccc(F)cc2)c(-c2ccnc(Nc3ccc(N4CCNCC4)cc3)n2)s1 : -1
Fc1ccc(-c2nc(C3CCNCC3)sc2-c2ccnc(NCCN3CCCC3)n2)cc1 : 1
COCCNc1nccc(-c2sc(C3CCNCC3)nc2-c2ccc(F)cc2)n1 : 1
Cc1cc(Nc2nccc(-c3sc(C4CCNCC4)nc3-c3ccc(F)cc3)n2)on1 : -1
O[C@H]1CC[C@H](Nc2nccc(-c3sc(C4CCNCC4)nc3-c3ccc(F)cc3)n2)CC1 : 1

Asked: Record `Cc1nc(Nc2nccc(-c3sc(C4CCNCC4)nc3-c3ccc(F)cc3)n2)ccc1F` : is its HSA binding strictly below 90%?
Given back: -1

Asked: Just wondering, is HSA binding of `Fc1ccc(-c2nc(C3CCNCC3)sc2-c2ccnc(Nc3ccccn3)n2)cc1` below 90%?
Given back: -1

Asked: Could you please tell me whether HSA binding recorded for `CN(C)CCNc1nccc(-c2sc(C3CCNCC3)nc2-c2ccc(F)cc2)n1` is less than 90%?
Given back: 1

Asked: For `Nc1nccc(-c2sc(C3CCNCC3)nc2-c2ccc(F)cc2)n1` , is the recorded HSA binding below the cut-off of 90%?
Given back: 1

====

molecular target: HSA (Homo sapiens); experiment: HSA binding (plasma protein binding); type: in vitro ADME
Please provide measured HSA binding for the entries that follow.
Answers are plain numbers, in %.

Batch of 3 molecules: report HSA binding for each.
1. Fc1ccc(-c2nc(C3CCNCC3)sc2-c2ccnc(Nc3nncs3)n2)cc1 [Compound 19]
2. CN1CCC(c2nc(-c3ccc(F)c(NS(C)(=O)=O)c3)c(-c3ccnc(NCC4CC4)n3)s2)CC1 [Compound 5, reference compound]
3. Fc1ccc(-c2nc(C3CCNCC3)sc2-c2ccnc(Nc3cccnn3)n2)cc1 [Compound 27]

Given back:
92
91
90
